Biological target: T1, murine CD22 protein (ACROBiosystems, SI2-M52Ha) (murine, UniProt P35329 22-708)
T1 construct: extracellular domain; also called murine CD22-ECD; murine CD22-ECD-His
T1 sequence (looked up): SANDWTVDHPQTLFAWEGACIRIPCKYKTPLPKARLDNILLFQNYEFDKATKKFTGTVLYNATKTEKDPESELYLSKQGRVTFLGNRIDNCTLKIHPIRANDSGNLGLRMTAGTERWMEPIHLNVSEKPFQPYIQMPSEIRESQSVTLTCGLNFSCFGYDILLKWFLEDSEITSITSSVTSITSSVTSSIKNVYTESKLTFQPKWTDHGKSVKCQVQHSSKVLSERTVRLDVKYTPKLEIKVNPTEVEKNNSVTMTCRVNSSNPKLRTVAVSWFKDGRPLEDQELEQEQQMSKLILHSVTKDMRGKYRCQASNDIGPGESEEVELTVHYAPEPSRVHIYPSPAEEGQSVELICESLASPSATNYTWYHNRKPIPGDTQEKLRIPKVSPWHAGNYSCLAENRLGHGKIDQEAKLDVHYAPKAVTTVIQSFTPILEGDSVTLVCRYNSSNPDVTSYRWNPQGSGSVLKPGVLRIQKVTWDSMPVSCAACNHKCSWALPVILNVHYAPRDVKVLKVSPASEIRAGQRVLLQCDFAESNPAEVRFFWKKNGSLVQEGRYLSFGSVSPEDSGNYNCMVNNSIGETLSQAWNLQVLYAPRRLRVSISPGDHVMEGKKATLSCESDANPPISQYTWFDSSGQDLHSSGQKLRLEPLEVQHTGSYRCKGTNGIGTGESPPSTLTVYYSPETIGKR
Assay: ELISA, coated murine CD22, 0.01 nM Ab
Listing: OD450 of selected binders
The reply should contain only the number, in OD450.

Worked examples follow.
Binder: F1.216.2 human-murine chimeric antibody (antibody, human IgG1, kappa, V domains shown, Chimeric, human IgG1 / kappa) VH: QVQLQQSGPEVVRPGASVKISCKASGYAFSSSWMNWMKQRPGKALEWIGRIYPGDGDTNYSGEFKVKATLTADKSSSTAYMQLSSLTSEDSAVYFCAREGSYYSNPWYFDYWGQGTTLTVSS VL: DVLVTQTPLSLPVSLGDQASISCRSSQSIVQSNGDTYLEWYLQKPGQSPKLLIYKVSNRFSGVPDRFSGSGSGTDFTLKISRVEAEDLGVYYCFQGSHVPFTFGSGTKLEIKR
OD450 [OD450]: 0.05
//
Binder: F1.280.1 human-murine chimeric antibody (antibody, human IgG1, kappa, V domains shown, Chimeric, human IgG1 / kappa) VH: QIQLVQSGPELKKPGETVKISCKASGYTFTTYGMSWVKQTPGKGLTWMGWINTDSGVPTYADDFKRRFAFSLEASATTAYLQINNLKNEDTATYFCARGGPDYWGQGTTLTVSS VL: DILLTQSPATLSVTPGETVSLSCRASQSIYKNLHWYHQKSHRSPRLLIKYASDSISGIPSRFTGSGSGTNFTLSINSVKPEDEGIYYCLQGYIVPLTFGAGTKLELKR
OD450 [OD450]: 0.05

Query binder follows.
[Q] Name the recorded OD450 for F1.161.7 human-murine chimeric antibody (antibody, human IgG1, kappa, V domains shown, Chimeric, human IgG1 / kappa) VH: QVQLQQPGAELVKPGASVKMSCKASGYTFTSYWISWVKQRPGQGLEWIGDIYPGTGSSNYNEKFKSKATLTVDTSSSTAYMQLSSLTSEDSAVYYCARLKFEGIGYWGQGTTLTVSS VL: QIVLTQSPAIMSASLGEEITLTCSASSSVSYMHWFQQKSGTSPKLLIYSISNLASGVPSRFSGSGSGTFYSLTISSVEAEDAADYYCHQWSSYPWTFGGGTKLEIKR .
[A] 0.05
